Biological target: Torsin-1A-interacting protein 1 (Homo sapiens)
Assay: compound microarray binding of lysate hLAP1 – cell lysate, small-molecule microarray, COS7 lysate, 635/667 nm fluorescence, primary screen (AID 1116)
Conditions: 635 nm fluorescence, higher = more signal
Just so you know, the groups by composite z-score go like this: bucket 1 = under 0.006, bucket 2 = from 0.006 up to 0.9, bucket 3 = 0.9 and over

Worked set:
>  <COMPOUND>
COCCCNC(=O)[C@@]1(Cc2ccccc2I)c2ccccc2C(=O)N(Cc2ccccc2)[C@H]1c1ccc(CO)cc1

>  <SYSTEM>
Torsin-1A-interacting protein 1 (Homo sapiens)

>  <CLASS_NAME>
bucket 2

$$$$
>  <COMPOUND>
CN1C(=O)C2C=CC(C(O)c3ccc(Br)cc3)N(Nc3ccccc3)C2C1=O (stereo not given)

>  <SYSTEM>
Torsin-1A-interacting protein 1 (Homo sapiens)

>  <CLASS_NAME>
bucket 2

$$$$
>  <COMPOUND>
CCCCN1CC=CC23O[C@@H]4/C=C\CCCOC(=O)C4[C@H]2C(=O)N(C(C)CO)[C@@H]3C1=O (stereo not given in full)

>  <SYSTEM>
Torsin-1A-interacting protein 1 (Homo sapiens)

>  <CLASS_NAME>
bucket 1

$$$$
>  <COMPOUND>
CCCC[C@H]1OB(O)C[C@H]2C1=C(COc1ccccc1)C[C@H]1C(=O)N(Cc3ccccc3)C(=O)[C@H]12

>  <SYSTEM>
Torsin-1A-interacting protein 1 (Homo sapiens)

>  <CLASS_NAME>
bucket 1

$$$$
>  <COMPOUND>
NC(=O)NCC#Cc1ccc2c(c1)[C@]1(C(=O)N2)[C@H](c2ccccc2OCCO)N2[C@H](c3ccccc3)[C@H](c3ccccc3)OC(=O)[C@H]2[C@@H]1C(=O)N1CCCCCCC1

>  <SYSTEM>
Torsin-1A-interacting protein 1 (Homo sapiens)

>  <CLASS_NAME>
bucket 3

$$$$
>  <COMPOUND>
[N-]=[N+]=NCc1ccccc1C[C@]1(C(=O)NCc2ccccc2)COC(c2ccc(OCCCO)cc2)=N1

>  <SYSTEM>
Torsin-1A-interacting protein 1 (Homo sapiens)

>  <CLASS_NAME>
bucket 3

$$$$
>  <COMPOUND>
O=C1C2C=CC(C(O)c3ccccn3)N(Nc3ccccc3F)C2C(=O)N1c1ccccc1 (stereo not given)

>  <SYSTEM>
Torsin-1A-interacting protein 1 (Homo sapiens)

>  <CLASS_NAME>
bucket 2

$$$$
>  <COMPOUND>
CCCCCN1CC=CC23O[C@@H]4C=CCCOC(=O)C4[C@H]2C(=O)N(CCCO)[C@@H]3C1=O (stereo not given in full)

>  <SYSTEM>
Torsin-1A-interacting protein 1 (Homo sapiens)

>  <CLASS_NAME>
bucket 1

$$$$

Below: the item to evaluate.
Which composite z-score band matches "CO[C@H]1O[C@H](CO)[C@@H](OC(=O)Nc2cccc(F)c2)[C@H](OC(=O)Nc2ccccc2-c2ccccc2)[C@@H]1OC(=O)Nc1ccccc1-c1ccccc1" ?
bucket 3

----------
Tested on: Neuregulin-1 EGF-like domain
Assay: small molecules binding NRG1 EGF domain – biochemical, small-molecule microarray, 635 nm fluorescence, primary screen (AID 1081);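 further: binding of the protein to compounds printed on small-molecule microarray slides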
Settings: higher = more signal
Exercise: for every item that follows, state its recorded composite z-score.
Give bare numbers.

Solved entries:
>  <MOLECULE>
O=C1c2ccccc2[C@](Cc2ccccc2I)(C(=O)O)[C@H](c2ccc(CO)cc2)N1Cc1ccccc1C(F)(F)F

>  <composite z-score>
1.26

$$$$
>  <MOLECULE>
O=C1OCCC/C=C\[C@H]2OC34C=CCN(CCN5CCOCC5)C(=O)[C@H]3N(CCO)C(=O)[C@@H]4C12 (some centres undefined)

>  <composite z-score>
0.843

$$$$
>  <MOLECULE>
CCCC[C@H]1C[C@@H]1[C@@H]1N(P(=O)(c2ccccc2)c2ccccc2)[C@](CO)(c2ccccc2)CC12CC2

>  <composite z-score>
1.05

$$$$

Parameter requested: composite z-score. Apply to each item below.
1. O=C(NCC(O)CO)[C@@]1(Cc2ccccc2)N=C(c2ccc(OCCCO)cc2)O[C@H]1c1ccccc1 (some centres undefined)
2. C=CCOC(=O)[C@@H]1[C@H]2C(=O)O[C@H](c3ccccc3)[C@H](c3ccccc3)N2[C@H](c2ccc(OCCOC(=O)[C@H]3C[C@H]4C(=O)N[C@@H](CCCC[N+](C)(C)C)C(=O)N4[C@H]3c3cccc(OCCO)c3)cc2)[C@@]12C(=O)Nc1ccc(I)cc12
3. CC(C)N1C(=O)c2ccccc2[C@](C)(C(=O)NC2CC2)[C@@H]1c1ccc(CO)cc1
4. [N-]=[N+]=Nc1ccccc1[C@H]1OC(c2ccc(OCCCO)cc2)=N[C@@]1(CCS(=O)(=O)c1ccccc1)C(=O)N1CCOCC1

1: 1.26; 2: 1.17; 3: 1.21; 4: 1.27

----------
Test: compounds binding Alexa647 anti-His antibody – biochemical, small-molecule microarray, 635 nm fluorescence, artefact control for SMM control protein annotation, primary screen (AID 1128);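 further: score merges feature fluorescence with signal-to-noise for each printed compound spot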
Conditions: higher = more signal
METRIC: composite z-score
Answers are plain numbers.

>  <SMILES_TEXT>
Cc1ccccc1/C=C/C=O

>  <composite z-score>
-0.0248

$$$$
>  <SMILES_TEXT>
CO[C@H]1O[C@H](CO)[C@@H](OC(=O)Nc2ccccc2-c2ccccc2)[C@H](OC(=O)Nc2ccccc2-c2ccccc2)[C@H]1OC(=O)Nc1ccccc1-c1ccccc1

>  <composite z-score>
2.54

$$$$
>  <SMILES_TEXT>
COc1ccc(C(=O)Nc2cccc(CN3C(=O)[C@@]4(O[C@@H](CC(=O)N5Cc6ccccc6C[C@H]5CO)[C@H]([Si](C)(C)c5ccc(OC)cc5)[C@H]4C)c4ccccc43)c2)cc1

>  <composite z-score>
1.37

$$$$
>  <SMILES_TEXT>
CCCC[C@@H]1C[C@H]1[C@@H](NC(=O)c1ccccc1)c1ccc(-c2ccccc2)cc1

>  <composite z-score>
0.676

$$$$

Parameter requested: composite z-score. Apply to each item below.
1. COC(=O)c1nc2oc1CC[C@@H](CO)NC(=O)N(C)Cc1cn(nn1)C[C@H](Cc1ccccc1)NC2=O
2. CN(C)CCCCNC(=O)[C@@H]1C[C@@H]2C(=O)N[C@@H](CCCCN)C(=O)N2[C@@H]1c1cccc(OCCO)c1
3. COc1ccc([Si](C)(C)[C@H]2[C@H](CCO)O[C@@]3(C(=O)N(Cc4ccccc4)c4ccc(N5C(=O)COc6ccccc65)cc43)[C@@H]2C)cc1
4. COc1ccc([Si](C)(C)[C@H]2[C@H](CC(=O)N(CCO)Cc3ccccc3)O[C@@]3(C(=O)N(Cc4cccc(N5C(=O)c6cccc7cccc5c67)c4)c4ccccc43)[C@@H]2C)cc1

[0.0255, 0.117, -0.12, 1.07]

----------
Exercise: for every item that follows, state its recorded composite z-score.
Assay: small molecules captured by biotinylated probe aFGF2 – biochemical, small-molecule microarray, fluorescence 635/667, stem cell growth factor project, primary screen (AID 1067);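 further: measures binding of biotinylated aFGF2 protein to printed compounds on slides; z-score merges feature fluorescence and signal-to-noise across triplicate slides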
Settings: higher = more signal
Give bare numbers.

>  <MOLECULE>
O=C(NCC(F)(F)F)[C@@H]1c2ccccc2C(=O)N(Cc2ccccc2)[C@H]1c1ccc(CO)cc1

>  <ENDPOINT_RESULT>
-0.0637

$$$$
>  <MOLECULE>
C=CCC(OC(C)=O)[C@@H]1[C@@H](N(Cc2cc3ccccc3o2)C(=O)c2cccc3ccccc23)c2cc(OCCCO)ccc2N1C(=O)Cc1ccc(OC)cc1 (some centres not stated)

>  <ENDPOINT_RESULT>
-0.0128

$$$$
>  <MOLECULE>
CC(C)N1C(=O)c2ccccc2[C@](C)(C(=O)NCCCN(C)C)[C@@H]1c1ccc(CO)cc1

>  <ENDPOINT_RESULT>
-0.154

$$$$
>  <MOLECULE>
COC(=O)[C@@]1(Cc2ccc(OC)cc2)[C@H]2c3cc(C(=O)N4CCCC4)n(CCN4CCOCC4)c3C[C@H]2CN1C(=O)c1ccccc1

>  <ENDPOINT_RESULT>
1.01

$$$$

Parameter requested: composite z-score. Apply to each item below.
1. O=C1OCC=C[C@H]2OC34C=CCN(CCN5CCOCC5)C(=O)[C@H]3N(CCCCCCO)C(=O)[C@@H]4[C@@H]12 (some centres not stated)
2. C=CC[C@]1(C(=O)NCCN2CCOCC2)N=C(c2ccc(OCCCO)cc2)O[C@H]1c1ccccc1N=[N+]=[N-]
3. CCCCN1CC=CC23O[C@@H]4C=CCCOC(=O)C4[C@H]2C(=O)N(CCCO)[C@@H]3C1=O (some centres not stated)
4. CC(C)OC(=O)C1=CCC(c2cccc(Cl)c2)O1 (configuration not stated)
5. Cc1ccc(N2C(=O)c3ccccc3[C@@H](C(=O)NCC(C)C)[C@@H]2c2ccc(CO)cc2)nc1

[-0.0785, 0.178, -0.147, -0.0717, -0.161]

Parameter requested: composite z-score. Apply to each item below.
1. CN(C)CCCN1C(=O)[C@@]2(c3ccc([N+](=O)[O-])cc3)CC(=O)N(C3CCCCC3)[C@@H]2c2ccc(CO)cc21
2. O=C(NCC(O)CO)[C@]1(CCS(=O)(=O)c2ccccc2)N=C(c2ccc(OCCCO)cc2)O[C@@H]1c1ccccc1 (some centres not stated)
3. COC(=O)[C@@]1(Cc2ccc(F)cc2)[C@H]2c3cc(C(=O)N(C)C)n(Cc4ccccn4)c3C[C@H]2CN1C(=O)c1ccccc1

[-0.107, -0.0064, 0.25]

These entries and their values trace back to PubChem BioAssay.
